Assay: NCI Yeast Anticancer Drug Screen. Data for the sgs1 mgt1 strain (AID 161);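 also: 0% = growth of cultures given vehicle only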
Conditions: S. cerevisiae sgs1 mgt1 strain, at 50.0 µM
This is part of a sample that, as a whole, favours compounds with a hit. Of some 79,000 tested, about 15% had one in any assay. Activity calls are given as the source filed them. Rule as the data show it: active = growth inhibition above about 70%; inactive = the rest.
Outcome codes: y = active, n = inactive

compound	classLabel
O=C1C=C(N2CC2)C(=O)C=C1N1CC1	y
CC1(C)OCC(C2NC2C2COC(C)(C)O2)O1 (configuration not stated)	n
Cc1ccc(C2=NOP(c3ccccc3)(c3ccccc3)(c3ccccc3)C2)cc1	n
CCC1(O)C(=O)OCc2c1cc1n(c2=O)Cc2cc3cc(C)ccc3nc2-1 (configuration not stated)	n
O=C(COc1ccc(Cl)c(Cl)c1)NCCc1cc[n+](Cc2ccc(Cl)cc2S(=O)(=O)F)cc1	n
CC1(C)CC(O)CC(C)(C)N1O	n
COc1ccccc1N	n
CC(C)[C@](O)(C(=O)OCC1=CC[N+]2([O-])CC[C@@H](O)[C@@H]12)[C@H](C)O (some centres not stated)	n
C[CH2][Sn]([Br])([CH2]C)[c]1ccccc1CN(C)C	y
CCCCSP(=S)(SCCCC)SCCCC	n
CC(C)N(N=O)C(C)C	n
CSc1nsc(-c2ccccc2)[s+]1	n

----------
Test: NCI Yeast Anticancer Drug Screen. Data for the rad50 strain (AID 155);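 also: 0% = growth of vehicle-only cultures of the same strain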
Details: S. cerevisiae rad50 strain growth inhibition; at 50.0 µM; active compounds read high
About 79,000 compounds went through this panel and 15% of them were active in at least one assay; those are over-represented in the sample as a whole.
observedProperty: growth inhibition (%)

compound	unitSymbol	resultNumber
C#CC1(OC(C)=O)CCC2C3CC=C4C=C(OC(C)=O)CCC4(C)C3CCC21C (stereo not given)	%	90.5
Cc1ccccc1N	%	4.1
[CH3][Sn]([CH3])([Br])[Br].c1ccc(-c2nnc(-c3ccccn3)nc2-c2ccccc2)cc1	%	20.4
CCCCCCCCCC[C@@H](O)[C@@H]1CC[C@@H]([C@@H]2CC[C@@H]([C@@H](O)CCCCCCCCCC[C@H](O)CC3=CC(C)OC3=O)O2)O1 (stereo not given in full)	%	-3.45
CC1NCCc2c1[nH]c1cc(O)ccc21 (stereo not given)	%	4.55

----------
Assay: NCI Yeast Anticancer Drug Screen. Data for the sgs1 mgt1 strain (AID 161);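 also: 0% = growth of cultures given vehicle only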
Conditions: S. cerevisiae sgs1 mgt1 strain, at 50.0 µM, active compounds read high
Experimental: Growth inhibition of yeast strains with defined genetic alterations is measured as a screen for potential anti-cancer activity. Selected strains with alterations in DNA damage repair or cell cycle control were exposed to compounds and growth inhibition was measured relative to vehicle treated controls. The strain used in this assay is sgs1 mgt1
Compounds without any hit were thinned out: in the full panel of roughly 79,000, 15% have a hit.
Label class 1 when growth inhibition >= 30%; otherwise class 0.

molecule	classLabel
CC(C)N1CCc2cc3c(cc2C1)OCO3	class 0
Oc1c(Cl)c(Cl)cc(Cl)c1Cc1c(Cl)cc(Cl)c(Cl)c1[O][Pb]([c]1ccccc1)([c]1ccccc1)[c]1ccccc1	class 1
C=CC12CN(C)C3C4COC(CC41)C1(C(=O)Nc4ccccc41)C32 (stereo not drawn)	class 0
O=C(COc1ccc(Cl)c(Cl)c1)Nc1cccc(S(=O)(=O)F)c1	class 0
CC[n+]1c(/C=C/c2ccc(N(CCCl)CCCl)cc2)ccc2cc(Br)ccc21	class 1
CC1=CC2CC(C)=C(CC[C@]3(C)CC[C@H]([C@@H](C)C(=O)O)OO3)C(C)(C)C2CC1 (stereo partly drawn)	class 1
CC(Cl)CN1COc2ccc3ccc4c(c3c2C1)CN(CC(C)Cl)CO4 (stereo not drawn)	class 0
CC(=O)O[C@H]1C(=O)[C@@]2(C)C(C(OC(=O)c3ccccc3)[C@]3(O)C[C@H](OC(=O)C(OC(=O)CCCC(=O)NCCCN(C)C)C(NC(=O)c4ccccc4)c4ccccc4)C(C)=C1C3(C)C)C1(OC(C)=O)COC1C[C@@H]2O (stereo partly drawn)	class 0

----------
The entries below are paired with their reported growth inhibition.
Test: NCI Yeast Anticancer Drug Screen. Data for the bub3 strain (AID 167)
Details: S. cerevisiae bub3 mutant strain, at 5.0 µM (retest, dose inferred, filed as 0.5), active compounds read high
About 79,000 compounds went through this panel and 15% of them were active in at least one assay; those are over-represented in the sample as a whole. Activity calls are given as the source filed them. Cut-off read from the data, not from the text of the source: active = growth inhibition above about 70%; inactive = the rest.

molecule	growth inhibition
COc1cc(C(CC(=O)N(CCCl)CCCl)c2ccc3c(c2)OCO3)cc(OC)c1OC (centres undefined)	2% (inactive)
N#CS.[Ag]	25% (inactive)
C1CCNCC1.O=C([CH-]C(=O)C(F)(F)F)c1ccc2c(c1)C(=O)c1ccccc1-2.O=C([CH-]C(=O)C(F)(F)F)c1ccc2c(c1)C(=O)c1ccccc1-2.O=C([CH-]C(=O)C(F)(F)F)c1ccc2c(c1)C(=O)c1ccccc1-2.O=C([CH-]C(=O)C(F)(F)F)c1ccc2c(c1)C(=O)c1ccccc1-2.[Eu+3]	34% (inactive)
C[SH+]c1ccccc1N=Cc1ccccn1.C[SH+]c1ccccc1N=Cc1ccccn1.[Ni+2].[O-][Cl+3]([O-])([O-])[O-]	-4% (inactive)
CCN(CC)C(=S)[S-].CCN(CC)C(=S)[S-].O=C(O)CC([S-])C(=O)O.[Fe+3] (centres undefined)	-1% (inactive)
C[CH2][Sn]1([CH2]C)[O]C2C(OC)OC3COC(c4ccccc4)OC3C2[O]1 (centres undefined)	69% (inactive)
[CH3][Sn]([CH3])([S]CCS(=O)(=O)O)[S]CCS(=O)(=O)O	-20% (inactive)
COC(=O)[CH2][Sn]([CH2]C(=O)OC)([c]1ccccc1)[c]1ccccc1	82% (active)
CN1C(=O)C2(C)SSC1(C)C(=O)N2C	17% (inactive)
CC[PH+](CC)CC.[Cl][Au]	99% (active)
C[C@]12CC[C@H](O)C[C@@H]1CC[C@@H]1[C@@H]2CC[C@]2(C)C(=O)/C(=C/O)C[C@@H]12	-4% (inactive)
O=C(O)C(Br)C(Br)C(=O)O.[Ag] (centres undefined)	99% (active)
O=C(N/N=C/c1cc(Br)cc(Br)c1[O-])c1ccccc1O.O=C(N/N=C/c1cc(Br)cc(Br)c1[O-])c1ccccc1O.[Co+2]	90% (active)
CN(C)CC1(N)C(=O)NC(=O)NC1=O	0% (inactive)
C#CC[As+](c1ccccc1)(c1ccccc1)c1ccccc1	34% (inactive)
CC1Oc2cc3c(-c4c(O)cc(O)c5c(O)c6c(cc45)OC(C)C(C)C6=O)c(O)cc(O)c3c(O)c2C(=O)C1C (centres undefined)	-8% (inactive)
CCOC(=O)c1[nH]cnc1/N=N/N(C)N	47% (inactive)
Cc1ccc2c(C)c3ccc4ccccc4c3c[n+]2c1	69% (inactive)
N#CCC[CH2][Sn]([Br])([Br])[c]1ccccc1	-6% (inactive)

----------
Assay: NCI Yeast Anticancer Drug Screen. Data for the mec2-1 strain (AID 157)
Details: S. cerevisiae mec2-1 strain, at 50.0 µM, active compounds read high
Compounds without any hit were thinned out: in the full panel of roughly 79,000, 15% have a hit.
The entries below are paired with their reported growth inhibition.

compound	unitSymbol	growth inhibition
COc1cc(=O)oc(/C=C/C=C/C=C/C(C)=C\C2(C)OC(C)C(C)(O)C2O)c1C (stereo not drawn)	%	-8.35
CCN(CC)C(=S)SCc1ccccc1OC(=O)NC	%	-8.6
COP1(=O)Oc2ccccc2C(=O)C(C(F)(F)F)(C(F)(F)F)O1 (stereo not drawn)	%	-1.6
COc1cc2c(cc1O)C(=O)O[C@@H]1CC=C3CCN(C)[C@H]3[C@H]21	%	11.3
COc1ccc([As]=[As]c2ccc(OC)c(I)c2)cc1I (stereo not drawn)	%	99.8
OCCBr	%	-7.7
C/C=C/C=C\C=C/C(O)CC(OP(=O)(O)O)C(C)(O)/C=C/C1CC=CC(=O)O1 (stereo not drawn)	%	-52
COP1(=S)OCC(C(C)(C)C)CO1 (stereo not drawn)	%	1.2
CC1CC(C)(O)CC(C(O)CC2CC(=O)NC(=O)C2)C1=O (stereo not drawn)	%	51
CC1CCC2NCCNC2C1 (stereo not drawn)	%	6.65
NC[CH2][Sn]([c]1ccccc1)([CH]1CCCCC1)[CH]1CCCCC1	%	98.7
C1=C[N-]c2c3c(ccc2=C1)=CC=C[N-]3.C1=C[N-]c2c3c(ccc2=C1)=CC=C[N-]3.[Cl][Ru][Cl]	%	28.3
O=c1oc2ccccc2c(O)c1C(c1ccc(O)cc1)c1c(O)c2ccccc2oc1=O	%	3.1
CCCNC1=C(C)C(=O)C2=C(C1=O)[C@H](COC(N)=O)[C@]1(OC)[C@@H]3N[C@@H]3CN21	%	38.9
C[C@]12CCC(=O)N[C@@H]1CC[C@@H]1[C@@H]2CC[C@]2(C)[C@@H](OC(=O)COc3ccc(N(CCCl)CCCl)cc3)CC[C@@H]12	%	4.7
Cc1cc(C)c(C[N+](C)(C)C)c(C)c1C	%	99.7
CCN1C(=O)NC(=O)C(CC)(N2CCCCC2)C1=O (stereo not drawn)	%	7.95
O=[n+]1c2ccccc2n([O-])c2ccccc21.[Cl][Cu][Cl]	%	99
CC(=O)C(=O)c1ccccc1	%	6.5
CC(C)=CC1C(C(=O)OCc2ccc(Cl)c(Cl)c2)C1(C)C (stereo not drawn)	%	-2.5
Cc1ccccc1[N+](=O)[O-]	%	13.6
CCCCC(CC)COP(OCC(CC)CCCC)OCC(CC)CCCC.[Br][Hg][Br] (stereo not drawn)	%	-3.1
O=C(OCC1CCCN2CCCCC12)c1cccnc1 (stereo not drawn)	%	-10.8
O=C(O)C1CCCC(C(=O)O)[N-]1.O=C(O)C1CCCC(C(=O)O)[N-]1.[Cr+2] (stereo not drawn)	%	-3.5
CCCC(C)C1(C)C(=O)NC(=O)N(C)C1=O (stereo not drawn)	%	18.1
CCCC(C)c1ccccc1OP(=S)(S)Oc1ccccc1C(C)CCC (stereo not drawn)	%	97.8
CCOP(=O)(OCC)C(C)(CC)/N=C(\N)NC#N (stereo not drawn)	%	-36.9
[C-]#[O+].[C-]#[O+].[C-]#[O+].[C-]#[O+].[Mo].c1cnc2c(c1)ccc1cccnc12	%	60.4
COc1ccc(CN2CCCN(Cc3ccc(OC)cc3OC)C2c2ccc(N(CCCl)CCCl)cc2)c(OC)c1	%	22.8
O=S1(=O)N2CN3CCN(C2)CN1C3	%	40.4
CCOC(=O)C1=C(OC(OCC)C(CC)[Se]c2ccccc2)CCC1 (stereo not drawn)	%	10.6
O=[As](O)(O)c1ccc2nc3cc([As](=O)(O)O)ccc3nc2c1	%	-3
CN(C)C(=S)Oc1c(Cl)cc(S(=O)(=O)F)cc1Cl	%	12.9
O=C(N/N=C/c1cc(Br)cc(Br)c1[O-])c1ccccc1O.O=C(N/N=C/c1cc(Br)cc(Br)c1[O-])c1ccccc1O.[Cl-].[Fe+3]	%	0.15
O=C([O-])C[OH+]c1ccc(Cl)cc1Cl.O=C([O-])C[OH+]c1ccc(Cl)cc1Cl.[Ni+2]	%	21.6
CCOP(=O)(OCC)/C(C#N)=C/c1ccc(Br)cc1	%	94
CC(C)C12C=C3CCC4C(C)(C(=O)O)CCCC4(C)C3(CC1)OO2 (stereo not drawn)	%	95
CC(CC(C)(C)C)C(=O)Cl (stereo not drawn)	%	-2.7
C=CCN(CC=C)C1CCOC(OC)C1O (stereo not drawn)	%	-20.5
COc1ccc(/C=C/c2cc(OC)c3c(c2)OCO3)cc1O	%	5.45
O=C1NC(=O)C2(CCc3ccc(N(CCCl)CCCl)cc32)N1 (stereo not drawn)	%	-19.5
O=P(O)(OCCc1ccccc1)Oc1ccccc1O	%	-4.55
C(=C/[PH+](c1ccccc1)c1ccccc1)/[PH+](c1ccccc1)c1ccccc1.C(=C/[PH+](c1ccccc1)c1ccccc1)/[PH+](c1ccccc1)c1ccccc1.C(=C/[PH+](c1ccccc1)c1ccccc1)/[PH+](c1ccccc1)c1ccccc1.[Pt]	%	17.6
